# Read-out: Intercellular Adhesion Molecule 1 (ICAM1), ICAM1 (gene 3383)
# PROTOCOL SUMMARY: BSK_3C_ICAM1: BioMAP Diversity Plus: 3C Assay for Intercellular Adhesion Molecule 1 (ICAM1) Biomarker Activity (AID 2283003)
# CONDITION LABEL: primary human endothelial cells (HUVEC); actives raise or lower the signal
Calls of active or inactive are those of the source. How the source made its calls: active means hit-call score of the fitted dose curve at least 0.9, where 1 is the maximum; inactive means score below 0.9.
Result category, one only: active, inactive

These recorded examples may help you get a feel for the data.
>>> assigned_class("NC(N)=O")
"inactive"
>>> assigned_class("CC1(C)C(=O)N(Cl)C(=O)N1Cl")
"inactive"
>>> assigned_class("CCN(CC)C(=S)SSC(=S)N(CC)CC")
"active"
>>> assigned_class("OCc1ccccc1")
"inactive"
>>> assigned_class("OC[C@H]1O[C@@H]2O[C@H]3[C@H](O)[C@@H](O)[C@@H](O[C@H]4[C@H](O)[C@@H](O)[C@@H](O[C@H]5[C@H](O)[C@@H](O)[C@@H](O[C@H]6[C@H](O)[C@@H](O)[C@@H](O[C@H]7[C@H](O)[C@@H](O)[C@@H](O[C@H]1[C@H](O)[C@H]2O)O[C@@H]7CO)O[C@@H]6CO)O[C@@H]5CO)O[C@@H]4CO)O[C@@H]3CO")
"inactive"

Incoming: What call does the record list for `CNC(C)=O` ?
Outgoing: inactive

Incoming: Would you mind telling me which call this test gave `NC(=O)NN=Cc1ccc([N+](=O)[O-])o1` ?
Outgoing: inactive

Incoming: # fetch the recorded call for `OC(O)(C(F)C(O)(O)C(F)(F)F)C(F)(F)F` here
Outgoing: inactive

Incoming: Test call for this compound, please: `CCCOc1ccc(S(=O)(=O)N2CCN(CC)CC2)cc1-c1nc2c(CC)n(Cc3ccccn3)nc2c(=O)[nH]1`
Outgoing: inactive

Incoming: Returns: the outcome recorded for `Cn1cc[nH]c1=S` in this assay.
Outgoing: inactive

* * *

# Read-out: Fatty Acid-Binding Protein 1 (FABP1), FABP1 (gene 2168)
# PROTOCOL SUMMARY: LTEA_HepaRG_FABP1: Life Technologies and Expression Analysis (LTEA) Assay for Fatty Acid-Binding Protein 1 (FABP1) using HepaRG (AID 2283494)
# CONDITION LABEL: mRNA level, 48 h; actives raise or lower the signal
Active and inactive are the calls of the source. The calls were made as follows: active = hit-call score of the fitted dose curve at least 0.9, where 1 is the maximum; inactive = score below 0.9.
Please reply with one of these outcomes: yes (1) (active), no (0) (inactive)

# example entries with known answers
>>> assigned_class("O=C(O)c1cccc(C[C@@H]2COc3ccc(OCc4nc5cc(F)ccc5s4)cc3[C@@H]2O)c1")
"yes (1)"
>>> assigned_class("CCOC(N)=O")
"no (0)"
>>> assigned_class("c1ccc(C(O[C@@H]2CCCN(CCc3ccc4c(c3)OCO4)C2)c2ccccc2)cc1")
"yes (1)"
>>> assigned_class("COc1cc(C(C)C)c2c(c1)S(=O)(=O)N(COc1cc(=O)n3cccc(OCCN4CCCCC4)c3n1)C2=O")
"yes (1)"

Incoming: Recorded test outcome, item `c1ccc2ncccc2c1`
Outgoing: no (0)

Incoming: Could you check what this test reported for `OCC(CO)(CO)CO` ?
Outgoing: no (0)

Incoming: Dear all, I need the recorded test outcome for `CCCCCCCCCCCCCCCCOS(=O)(=O)O` , thank you.
Outgoing: no (0)

Incoming: Look up the recorded call for `CC(C)c1nnc2ccc(-c3ocnc3-c3cc(F)ccc3F)cn12` in this test.
Outgoing: yes (1)

Incoming: Dear all, I need the recorded test outcome for `CC(=O)c1ccccc1` , thank you.
Outgoing: no (0)

Incoming: Outcome logged for `C=CN1CCCC1=O` in this assay:
Outgoing: no (0)

Incoming: What outcome does the record of this test show for `Cc1ncc([C@@H](CCCCCCc2ccc3c(n2)NCCC3)CC(=O)O)cn1` ?
Outgoing: no (0)

Incoming: Could you please tell me the result logged for `Cc1nc(-c2ccccn2)ncc1C(=O)Nn1cc(C)c2cc(F)ccc21` in this assay?
Outgoing: yes (1)

* * *

# STUDY TARGET: Estrogen receptor (Homo sapiens)
# PROTOCOL SUMMARY: NVS_NR_hER: NovaScreen (NVS) Nuclear Receptor Binding Assay for human Estrogen Receptor (ER) (AID 2283348)
Records with an inconclusive call do not appear. Calls of active or inactive are those of the source. The calls were made as follows: active = hit-call score of the fitted dose curve at least 0.9, where 1 is the maximum; inconclusive = response in the unintended direction; inactive = score below 0.9.
Hi! Could you answer with just one of these? 1 (yes) = active, 0 (no) = inactive

>>> assigned_class("CCN(CC)C(=S)SSC(=S)N(CC)CC")
"0 (no)"
>>> assigned_class("COc1cc(C(C)C)c2c(c1)S(=O)(=O)N(COc1cc(=O)n3cccc(OCCN4CCCCC4)c3n1)C2=O")
"0 (no)"

Incoming: Lab log entry: `OC[C@H]1O[C@@H]2O[C@H]3[C@H](O)[C@@H](O)[C@@H](O[C@H]4[C@H](O)[C@@H](O)[C@@H](O[C@H]5[C@H](O)[C@@H](O)[C@@H](O[C@H]6[C@H](O)[C@@H](O)[C@@H](O[C@H]7[C@H](O)[C@@H](O)[C@@H](O[C@H]1[C@H](O)[C@H]2O)O[C@@H]7CO)O[C@@H]6CO)O[C@@H]5CO)O[C@@H]4CO)O[C@@H]3CO` — outcome as called in the assay?
Outgoing: 1 (yes)

Incoming: Each molecule tested received a call. Report the one for `C[C@]12C=CC(=O)C=C1CC[C@H]1[C@@H]3C[C@@H](O)[C@](O)(C(=O)CO)[C@@]3(C)C[C@H](O)[C@@]12F` .
Outgoing: 1 (yes)

Incoming: Can you look up the reported call for `Cc1cccc(O)c1C` for me?
Outgoing: 0 (no)

Incoming: Recorded call for `Nc1ccn([C@@H]2O[C@H](CO)[C@@H](O)[C@@H]2O)c(=O)n1` ?
Outgoing: 1 (yes)

Incoming: Fill in: this test's call for `c1ccc(C(O[C@@H]2CCCN(CCc3ccc4c(c3)OCO4)C2)c2ccccc2)cc1` is ___
Outgoing: 0 (no)

Incoming: Field: outcome | Entry: `CC(C)C(=O)Nc1ccc([N+](=O)[O-])c(C(F)(F)F)c1`
Outgoing: 0 (no)

* * *

# Read-out: JUN Transcription Factor, JUN (gene 3725)
# PROTOCOL SUMMARY: LTEA_HepaRG_JUN: Life Technologies and Expression Analysis (LTEA) Assay for JUN Transcription Factor using HepaRG (AID 2283513)
# CONDITION LABEL: mRNA level, 48 h; actives raise or lower the signal
Calls of active or inactive are those of the source. How the source made its calls: active means hit-call score of the fitted dose curve at least 0.9, where 1 is the maximum; inactive means score below 0.9.
Parameter call: string, one of Yes = active, No = inactive

Consider the worked cases shown below.
>>> assigned_class("CCCCCCCC/C=C\\CCCCCCCC(=O)OC[C@@H](O)[C@H]1OC[C@H](O)[C@H]1O")
"No"
>>> assigned_class("Cc1nccn1-c1ccc(Sc2cccc(C3(C(N)=O)CCOCC3)c2)cc1")
"Yes"
>>> assigned_class("O=C(O)c1cccc(C(=O)O)c1")
"No"

Incoming: Field: outcome | Entry: `CC(=O)c1ccccc1`
Outgoing: No

Incoming: What classification did `c1ccc2cc3ccccc3cc2c1` end up with in this test?
Outgoing: No

* * *

# Read-out: TIMP1, TIMP1 (gene 7076)
# PROTOCOL SUMMARY: LTEA_HepaRG_TIMP1: Life Technologies and Expression Analysis (LTEA) Assay for TIMP1 using HepaRG (AID 2283534);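 further: TaqMan qRT-PCR signal normalized to ACTB GAPDH and POLR2A housekeeping genes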
# CONDITION LABEL: mRNA level, 48 h; actives raise or lower the signal
# Method: LTEA_HepaRG is a cell based, multiplexed-readout assay that uses HepaRG, a human liver cell line, with measurements taken at 48 hours after chemical dosing on a 96-well plate.LTEA_HepaRG_TIMP1 is one of 102 assay component(s) measured in the LTEA HepaRG cell culture assay. It is a marker of Cell proliferation, survival, death.Data from the assay component LTEA_HepaRG_TIMP1 was analyzed into 1 endpoint. […]
Activity calls are given as the source filed them. Rule for the calls: active = hit-call score of the fitted dose curve at least 0.9, where 1 is the maximum; inactive = score below 0.9.
MEASURED QUANTITY: outcome

Consider the following illustrative entries.
>>> assay_value("NC(=O)N(O)[C@@H]1COc2cc(OCc3ccccc3)ccc21")
"inactive"
>>> assay_value("Cn1c(=O)c2[nH]cnc2n(C)c1=O")
"inactive"
>>> assay_value("CC(C)CCCCCCOC(=O)C1CCCCC1C(=O)OCCCCCCC(C)C (stereo not drawn)")
"inactive"
>>> assay_value("Cn1cc[nH]c1=S")
"inactive"
>>> assay_value("CCCC(CCC)C(=O)O")
"inactive"

The reported outcome of the molecule `C=CCc1cc(S(=O)(=O)c2ccc(O)c(CC=C)c2)ccc1O` was inactive

Entry `NC(=O)N1c2ccccc2C=Cc2ccccc21` , outcome reported as inactive

Item: `O=C(O)c1cccc(C[C@@H]2COc3ccc(OCc4nc5cc(F)ccc5s4)cc3[C@@H]2O)c1` | outcome: inactive

According to the records, this molecule `O=c1[nH]cnc2c1ncn2[C@H]1CC[C@@H](CO)O1` displays outcome of inactive

Entry `C=CN1CCCC1=O` ; outcome = inactive

Sure, the documented outcome for `OCCNCCO` is inactive

Reported outcome for `O=S1(=O)CCCO1` was inactive

Record `c1ccc(C(O[C@@H]2CCCN(CCc3ccc4c(c3)OCO4)C2)c2ccccc2)cc1` . Reported outcome: inactive
